The reported numbers originate from paper PMC7569488.

# tested-target: MKP5 single mutant M431L (Homo sapiens, UniProt Q9Y6W6, M431L)
# assay-text: Malachite green assay, MKP5 M431L mutant
measured-parameter: IC50 (µM)
Entry rule: numbers only, all in µM.

# get_value(readout= IC50, system= MKP5 single mutant M431L (Homo sapiens, UniProt Q9Y6W6, M431L)) for CSc1scc2c1-c1nc(SCC(=O)C(C)(C)C)ncc1CC2
99

* * *

# tested-target: PTP-1B (Homo sapiens, UniProt P18031)
# Sequence (P18031 1-435): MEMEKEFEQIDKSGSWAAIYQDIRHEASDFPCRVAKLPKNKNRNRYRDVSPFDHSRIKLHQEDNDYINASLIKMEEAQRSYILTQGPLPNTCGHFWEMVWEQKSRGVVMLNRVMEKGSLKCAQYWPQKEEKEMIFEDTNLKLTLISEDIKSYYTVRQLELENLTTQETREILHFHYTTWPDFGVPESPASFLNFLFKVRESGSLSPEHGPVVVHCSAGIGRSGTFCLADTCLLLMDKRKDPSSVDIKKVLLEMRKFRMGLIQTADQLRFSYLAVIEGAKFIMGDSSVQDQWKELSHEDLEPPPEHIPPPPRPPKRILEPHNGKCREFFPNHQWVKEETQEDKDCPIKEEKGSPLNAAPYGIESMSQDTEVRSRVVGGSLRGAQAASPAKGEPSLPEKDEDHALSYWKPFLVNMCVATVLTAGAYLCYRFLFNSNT
measured-parameter: IC50

# get_value(readout= IC50, system= PTP-1B (Homo sapiens, UniProt P18031)) for CSc1scc2c1-c1nc(SCC(=O)C(C)(C)C)ncc1CC2
> 100 µM

* * *

# tested-target: UniProt:Q9Y6W6
# Sequence (Q9Y6W6 320-467): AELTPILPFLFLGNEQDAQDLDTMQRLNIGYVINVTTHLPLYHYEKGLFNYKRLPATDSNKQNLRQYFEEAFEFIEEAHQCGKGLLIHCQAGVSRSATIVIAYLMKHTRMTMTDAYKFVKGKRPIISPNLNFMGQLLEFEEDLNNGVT
measured-parameter: pKi
// scale note: pKi = -log10(conc_M); give the bare number

Can you look up the measured pKi of CSc1scc2c1-c1nc(SCC(=O)C(C)(C)C)ncc1CC2 for me?
5.05
